# System: CCL17 secretion in peripheral human whole blood
# assay-remarks: Human Whole Blood (HWB) CCL17 TR-FRET Assay (IL-13 stimulated CCL17 secretion)
# Type: cell-based
# particulars: human whole blood, IL-13 stimulated, 48 hours
# Protocol: The IC50 (half-maximal concentration required for inhibition) of compounds for the inhibition of CCL17 secretion in peripheral human whole blood, stimulated through the IL-13-IL-13 receptor/IL-4 receptor pathway was evaluated with a TR-FRET sandwich ELISA CCL17 (TARC) Assay Kit (Bioauxilium). Test compounds (solubilized and serially diluted in DMSO, in an 11 point, 3-fold dilution series in duplicate) were spotted, 80 nL per well, into a 384 well v-bottom polypropylene plate. […]
observation-type: IC50 (nM)

For orientation, consider the following solved cases.
- molecule: "CCn1nc(C(=O)NCc2ccc(NC(=O)N(C)C)cc2)c2c1[C@H]1CC[C@H]1N(c1ccc(C(=O)N(C)C)cn1)C2 (single isomer, unassigned) [Example 231]"
  recorded-number: 23
- molecule: "CC(C)n1nc(C(=O)NCc2ccc(NC(=O)N(C)C)cc2)c2c1C(O)CN(c1ccc(C(=O)N(C)C)cn1)C2 (single isomer, unassigned) [Example 474]"
  recorded-number: 85
- molecule: "CC(CO)n1nc(C(=O)NCc2ccc(NC(=O)N(C)C)cc2)c2c1CCN(c1ccc(C(=O)N(C)C)cn1)C2 (single isomer, unassigned) [Example 360]"
  recorded-number: 91
- molecule: "CCC1Cc2c(c(C(=O)NCc3ccc(NC(=O)N(C)C)cc3)nn2C)CN1c1ccc(C(=O)N(C)C)cn1 (single isomer, unassigned) [Example 269]"
  recorded-number: 834
- molecule: "CCn1nc(C(=O)NCc2ccc(NC(=O)N(C)C)cc2)c2c1C(C(F)(F)F)CN(c1ncc(C(=O)N(C)C)cn1)C2 (single isomer, unassigned) [Example 464]"
  recorded-number: 2

(P) CC(C)C1CN(c2ccc(C(=O)N(C)C)cn2)Cc2c(C(=O)NCc3ccc(NC(=O)N(C)C)cc3)nn(C)c21 (single isomer, unassigned) [Example 272]
(Q) CCC1CN(c2ccc(C(=O)N(C)C)cn2)Cc2c(C(=O)NCc3ccc(NC(=O)N(C)C)cc3)nn(C(C)C)c21 (single isomer, unassigned) [Example 310]
Task for the reader: decide whether P or Q has the larger IC50. Answer by stating the label of the chosen item.
Q

(P) CCn1nc(C(=O)NCc2ccc(NC(=O)N(C)C)cc2)c2c1CC(C(F)(F)F)N(c1ccc(C(=O)N(C)C)cn1)C2 (single isomer, unassigned) [Example 250]
(Q) CC1CN(c2ccc(-c3nccn3C)cn2)Cc2c(C(=O)NCc3ccc(NC(=O)N(C)C)cc3)nn(C)c21 (single isomer, unassigned) [Example 204]
(R) CCc1nc(C(=O)NCc2ccc(NC(=O)N(C)C)cc2)c2n1C(C)CN(c1ccc(C(=O)N(C)C)cn1)C2 (single isomer, unassigned) [Example 233]
Given 3 molecules, produce a descending ranking by IC50. Dear reader, please state the labels in the requested order.
Q, R, P
(Q: 246 nM, R: 78 nM, P: 28 nM)

(1) CCC(C)n1nc(C(=O)NCc2ccc(NC(=O)N(C)C)cc2)c2c1[C@@H](C)CN(c1ccc(C(=O)N(C)C)cn1)C2 (single isomer, unassigned) [Example 318]
(2) CC(C)n1nc(C(=O)NCc2ccc(NC(=O)N(C)C)cc2)c2c1C(O)CN(c1ccc(C(=O)N(C)C)cn1)C2 (single isomer, unassigned) [Example 475]
Could you tell me which of these two has the smaller IC50 figure? First: 1 Second: 2 Kindly give the label for the entry you pick.
1

(1) CC(C)C1CN(c2ccc(C(=O)N(C)C)cn2)Cc2c(C(=O)NCc3ccc(NC(=O)N(C)C)cc3)nn(C)c21 (single isomer, unassigned) [Example 271]
(2) CCC1Cc2c(c(C(=O)NCc3ccc(NC(=O)N(C)C)cc3)nn2C(C)C)CN1c1ccc(C(=O)N(C)C)cn1 (single isomer, unassigned) [Example 268]
(3) CCn1nc(C(=O)NCc2ccc(NC(=O)N(C)C)cc2)c2c1C(C(F)(F)F)CN(c1ncc(C(=O)N(C)C)cn1)C2 (single isomer, unassigned) [Example 465]
(4) CCC(C)n1nc(C(=O)NCc2ccc(NC(=O)N(C)C)cc2)c2c1[C@@H](C)CN(c1ccc(C(=O)N(C)C)cn1)C2 (single isomer, unassigned) [Example 319]
Could you please order the items by IC50, going from the lowest number to the highest? # answer = labels listed in requested order
4, 2, 1, 3

(A) CNC(=O)c1ccc(CNC(=O)c2nn(C(C)C)c3c2CN(c2ccc(C(=O)N(C)C)cn2)CC3C(F)(F)F)cc1 (single isomer, unassigned) [Example 357]
(B) CC1CN(c2ccc(C(=O)N(C)C)cn2)Cc2c1nn1c2C(=O)N(Cc2ccc(NC(=O)N(C)C)cc2)CC1 (single isomer, unassigned)
Select one: A or B . Criterion: greater recorded IC50. State your choice using its label.
B
(B: 212 nM, A: 20 nM)

(1) CC(C)n1nc(C(=O)NCc2ccc(NC(=O)N(C)C)cc2)c2c1C(C(F)(F)F)CN(c1ncc(C(=O)N(C)C)cn1)C2 (single isomer, unassigned) [Example 462]
(2) CCn1nc(C(=O)NCc2ccc(C(=O)NC)cc2)c2c1C(C(F)(F)F)CN(c1ccc(C(=O)N(C)C)cn1)C2 (single isomer, unassigned) [Example 467]
Pick the one with the larger IC50: 1 vs 2 Refer to your chosen item by its label in the answer.
2
